Test system: NCI-H460
Assay: NCI tumour cell line growth inhibition, 48 h
The source made the active and inactive calls. Cut-off read from the data, not from the text of the source: active = GI50 up to about 1.1 µM and inactive = higher.
property-name: GI50

1. O=C1Nc2ccccc2/C1=N/N=c1\cccc[nH]1 = 14.6 µM (inactive)
2. COc1cc2c(cc1OC)C(C(c1ccccc1)c1ccccc1)N(C)CC2 (stereo unspecified) = > 89.1 µM (inactive)
3. CCCCCCCCCCCCCC(=O)O[C@H]1CC[C@H](NC(=O)[C@H](OC)[C@H](O)[C@@H](O)[C@H](O)/C=C/C(C)C)C(=O)NC1 [BENGAMIDE A] = 0.00512 µM (active)
4. NNC(=O)/C(NC(=O)c1ccccc1)=C(\N)c1ccc(Cl)cc1 = > 100 µM (inactive)
5. C=C(C)C1CC/C(C)=C/CCC2(C)OC2CC/C(CO)=C\C1O (stereo unspecified) = 42.7 µM (inactive)
6. Cc1ccc2c(c1)CC1(Cc3cccc(C)c3C1=O)C2=O (stereo unspecified) = 69.7 µM (inactive)
7. CN(C)c1ccc(C2CC(c3ccc4ccccc4c3O)=NN2c2ccc([N+](=O)[O-])cc2[N+](=O)[O-])cc1 (stereo unspecified) = 32.3 µM (inactive)
8. CC(C)c1ccc(/C=C2/C=C(c3ccc4ccccc4c3)OC2=O)cc1 = > 78.2 µM (inactive)
9. OC[C@]1(n2nc3ccccc3n2)OC[C@@H]1c1ccccc1 = 76.2 µM (inactive)
10. Cc1cn(S(=O)(=O)c2ccccc2)c2c(OCc3ccccc3)cc(NS(C)(=O)=O)cc12 = 18.5 µM (inactive)
11. O=C1C(Cl)=CC2(C=C1Cl)CCNC1=C2C(=O)c2nc[nH]c2C1=O = 40.3 µM (inactive)
12. N=C(N)C1CN(CC=O)C(=O)NC1=O (stereo unspecified) = > 100 µM (inactive)
13. COC1/C=C/C(C)C(C(C)C(OC)C(C)CCC(=O)C(C)C(CC(=O)O)OC)OC(=O)/C=C/C=C(\C)CC(OC)C(OC)C2=CC(=O)O[C@@H](C(C)C(OC)CC(OC)/C=C/C(C)C(O)C1)[C@H]2O (stereo partly specified) = 0.0311 µM (active)
14. O=C(Nc1ccc(Cl)cc1Cl)c1cc2nc3ccccc3c(=O)n2c2ccccc12 = > 10 µM (inactive)
15. CC(C)(CN)SCc1ccccc1 = > 100 µM (inactive)
16. CSc1ccc2c(cc1=O)[C@@H](NC(=O)c1ccc([N+](=O)[O-])cc1)CCc1cc(O)c(O)c(O)c1-2 = 40 µM (inactive)
17. CCOC(=O)C1Cc2ccc(C)cc2C1=O (stereo unspecified) = > 100 µM (inactive)
18. O=C(OCC1CO1)c1cccs1 (stereo unspecified) = > 100 µM (inactive)
19. C/N=c1\ss/c(=N\C(=S)N(C)C)n1C1CCCCC1 = > 31.6 µM (inactive)
20. C[C@]12CC[C@H](O)C[C@@H]1CC[C@@H]1[C@@H]2CC[C@]2(C)[C@@H](C3=CC(=O)OC3)CC[C@]12O = 0.673 µM (active)
21. CC(=O)C(=[N+]=[N-])C(=O)N1CCOC1=O = > 10 µM (inactive)
